# system_name: CDK7/Cyclin H/MAT1 complex (Homo sapiens, UniProt P50613)
# Sequence (P50613 whole entry): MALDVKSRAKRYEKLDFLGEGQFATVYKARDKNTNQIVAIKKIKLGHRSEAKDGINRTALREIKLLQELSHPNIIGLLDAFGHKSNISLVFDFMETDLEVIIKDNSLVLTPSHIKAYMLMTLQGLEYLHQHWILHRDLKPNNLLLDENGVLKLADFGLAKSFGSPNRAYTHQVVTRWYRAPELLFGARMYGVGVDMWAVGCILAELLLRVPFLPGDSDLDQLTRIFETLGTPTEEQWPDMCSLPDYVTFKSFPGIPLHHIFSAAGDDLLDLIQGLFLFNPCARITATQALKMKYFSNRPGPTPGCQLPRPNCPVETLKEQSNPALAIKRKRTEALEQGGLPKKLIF
# Sequence (P51946 whole entry partner): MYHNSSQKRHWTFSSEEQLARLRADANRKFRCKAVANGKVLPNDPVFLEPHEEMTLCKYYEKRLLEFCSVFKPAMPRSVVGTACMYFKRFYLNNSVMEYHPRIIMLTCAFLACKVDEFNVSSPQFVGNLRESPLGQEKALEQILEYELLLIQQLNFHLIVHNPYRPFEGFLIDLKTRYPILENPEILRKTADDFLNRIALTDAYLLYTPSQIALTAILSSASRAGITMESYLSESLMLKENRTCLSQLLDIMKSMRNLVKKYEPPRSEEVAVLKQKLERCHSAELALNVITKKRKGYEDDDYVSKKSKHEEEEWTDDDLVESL
# Sequence (P51948 whole entry partner): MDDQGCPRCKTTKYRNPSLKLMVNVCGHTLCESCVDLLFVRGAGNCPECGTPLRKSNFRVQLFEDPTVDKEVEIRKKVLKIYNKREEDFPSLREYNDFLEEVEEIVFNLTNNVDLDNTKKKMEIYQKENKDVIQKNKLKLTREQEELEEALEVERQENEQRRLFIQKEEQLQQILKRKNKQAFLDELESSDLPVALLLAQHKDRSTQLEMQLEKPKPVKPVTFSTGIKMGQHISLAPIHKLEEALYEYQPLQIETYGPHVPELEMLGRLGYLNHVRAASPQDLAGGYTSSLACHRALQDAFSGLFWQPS
# experiment_summary: CDK7 kinase inhibition assay (Caliper/LabChip EZ Reader)
# condition_details: CDK7/Cyclin H/MAT1 6 nM, ATP 2 mM, 35 min at 27° C.
pIC50: −log10 of the molar value.
Entries annotated with measured pIC50

>  <compound>
N#Cc1cc2[nH]cc(-c3nc(NC4CCCNC4)ncc3C(F)(F)F)c2cc1F (stereo not drawn)

>  <pIC50>
> 7.70

$$$$
>  <compound>
CNC(=O)c1cccc2c(-c3nc(NC4CCCNC4)ncc3C(F)(F)F)cn(COC)c12 (stereo not drawn)

>  <pIC50>
≤ 5.30

$$$$

stdin: Name the recorded pIC50 of the compound listed here: C#Cc1cnc(N[C@H]2CCCNC2)nc1-c1cn(C)c2ccccc12
stdout: 5.30 to 6.70

stdin: Name the recorded pIC50 of the compound listed here: FC(F)(F)c1cnc(NC2CCCNC2)nc1-c1c[nH]c2cc(-c3ccnc4ccccc34)ccc12 (stereo not drawn)
stdout: 6.70 to 7.70

stdin: Name the recorded pIC50 of the compound listed here: CNC(=O)c1ccc2c(-c3nc(NC4CCCNC4)ncc3C(F)(F)F)c[nH]c2c1 (stereo not drawn)
stdout: > 7.70

stdin: Name the recorded pIC50 of the compound listed here: OC1CC=C(c2cccc3c(-c4nc(NC5CCCNC5)ncc4C(F)(F)F)c[nH]c23)CC1 (stereo not drawn)
stdout: > 7.70

---

Entries annotated with measured IC50
# system_name: CDK7/Cyclin H/MAT1 complex (Homo sapiens)
# experiment_summary: CDK7 kinase inhibition assay (Caliper/LabChip EZ Reader)
# condition_details: CDK7/Cyclin H/MAT1 6 nM, ATP 2 mM, 35 min at 27° C.

Guide cases for IC50, answers given:
>  <compound>
Cn1cc(-c2nc(NC3CCCNC3)ncc2C(F)(F)F)c2cccc(C#N)c21 (stereo not shown) [Compound 279]

>  <assay_result>
20 to 200 nM

$$$$
>  <compound>
O=C(c1cccc(-c2ccc3c(-c4nc(NC5CCCNC5)ncc4C(F)(F)F)c[nH]c3c2)c1)N1CCCC1 (stereo not shown) [Compound 340]

>  <assay_result>
20 to 200 nM

$$$$
>  <compound>
CC1(Nc2ncc(Cl)c(-c3c[nH]c4ccccc34)n2)CCCNC1 (stereo not shown) [Compound 115]

>  <assay_result>
200 to 5000 nM

$$$$

stdin: Name the recorded IC50 of the compound listed here: CCS(=O)(=O)c1cccc2c(-c3nc(N[C@H]4CCCNC4)ncc3C(F)(F)F)c[nH]c12 [Compound 286]
stdout: < 20 nM

---

# system_name: CDK12 (aa686-1082)/Cyclin K complex (Homo sapiens, UniProt Q9NYV4)
# Construct: CDK12 (aa686-1082)/Cyclin K complex
# Sequence (Q9NYV4 686-1082): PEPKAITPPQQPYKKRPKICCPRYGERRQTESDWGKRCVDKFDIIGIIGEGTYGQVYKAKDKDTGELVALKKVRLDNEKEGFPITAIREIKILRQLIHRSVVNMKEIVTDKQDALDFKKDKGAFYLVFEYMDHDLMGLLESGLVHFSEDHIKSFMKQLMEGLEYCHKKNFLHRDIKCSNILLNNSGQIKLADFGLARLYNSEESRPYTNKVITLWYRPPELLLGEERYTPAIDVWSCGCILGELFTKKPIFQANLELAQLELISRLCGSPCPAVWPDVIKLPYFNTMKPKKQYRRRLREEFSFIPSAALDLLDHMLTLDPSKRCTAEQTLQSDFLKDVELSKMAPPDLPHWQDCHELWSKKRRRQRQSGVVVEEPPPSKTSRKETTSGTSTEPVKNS
# Sequence (O75909 whole entry partner, the tested form may be a part): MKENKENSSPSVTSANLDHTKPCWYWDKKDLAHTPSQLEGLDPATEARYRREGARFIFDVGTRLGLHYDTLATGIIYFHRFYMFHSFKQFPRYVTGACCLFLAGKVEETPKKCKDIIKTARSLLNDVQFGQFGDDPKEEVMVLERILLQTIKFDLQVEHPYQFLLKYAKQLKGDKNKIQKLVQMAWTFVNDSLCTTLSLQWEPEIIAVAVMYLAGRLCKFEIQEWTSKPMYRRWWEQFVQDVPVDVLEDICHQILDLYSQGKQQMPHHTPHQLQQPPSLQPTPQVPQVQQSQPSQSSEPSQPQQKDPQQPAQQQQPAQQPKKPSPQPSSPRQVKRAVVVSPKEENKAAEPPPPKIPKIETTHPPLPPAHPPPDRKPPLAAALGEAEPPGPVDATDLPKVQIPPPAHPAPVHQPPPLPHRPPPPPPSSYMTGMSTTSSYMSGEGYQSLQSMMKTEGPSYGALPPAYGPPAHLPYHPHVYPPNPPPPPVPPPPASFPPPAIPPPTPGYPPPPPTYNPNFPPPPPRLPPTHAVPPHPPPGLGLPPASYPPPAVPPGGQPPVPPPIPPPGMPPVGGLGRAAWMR
# experiment_summary: CDK12 kinase inhibition assay (Caliper/LabChip EZ Reader)
# condition_details: CDK12 (aa686-1082)/Cyclin K 50 nM, ATP 2 mM, 3 hr at 27° C.
measured_quantity: IC50

Guide cases for IC50, answers given:
>  <compound>
CC(C)S(=O)(=O)c1ccc2c(-c3nc(NC4CCCNC4)ncc3C(F)(F)F)c[nH]c2c1 (centres unmarked)

>  <IC50>
200 to 5000 nM

$$$$
>  <compound>
Fc1cc2[nH]cc(-c3nc(NC4CCCNC4)ncc3C(F)(F)F)c2cc1F (centres unmarked)

>  <IC50>
20 to 200 nM

$$$$
>  <compound>
Brc1cnc(N[C@@H]2CCCNC2)nc1-c1c[nH]c2ccccc12

>  <IC50>
20 to 200 nM

$$$$
>  <compound>
FC(F)(F)c1cnc(NC2CCCNC2)nc1-c1n[nH]c2ccccc12 (centres unmarked)

>  <IC50>
20 to 200 nM

$$$$
>  <compound>
Cc1ccncc1-c1ccc2c(-c3nc(NC4CCCNC4)ncc3C(F)(F)F)c[nH]c2c1 (centres unmarked)

>  <IC50>
200 to 5000 nM

$$$$

stdin: Name the recorded IC50 of the compound listed here: FC(F)(F)Sc1cnc(NC2CCCNC2)nc1-c1c[nH]c2ccccc12 (centres unmarked)
stdout: 200 to 5000 nM

stdin: Name the recorded IC50 of the compound listed here: CC1CCNCC1Nc1ncc(C(F)(F)F)c(-c2c[nH]c3ccccc23)n1 (centres unmarked) [Compound 372]
stdout: 200 to 5000 nM

stdin: Name the recorded IC50 of the compound listed here: CN1CCN(c2cccc3c(-c4nc(NC5CCCNC5)ncc4C(F)(F)F)c[nH]c23)C1=O (centres unmarked)
stdout: 200 to 5000 nM

---

Entries annotated with measured pIC50
# system_name: CDK12 (aa686-1082)/Cyclin K complex (Homo sapiens)
# Construct: CDK12 (aa686-1082)/Cyclin K complex
# experiment_summary: CDK12 kinase inhibition assay (Caliper/LabChip EZ Reader)
# condition_details: CDK12 (aa686-1082)/Cyclin K 50 nM, ATP 2 mM, 3 hr at 27° C.
pIC50: −log10 of the molar value.

Guide cases for pIC50, answers given:
>  <compound>
Fc1cccc2c(-c3nc(NC4CCCNC4)ncc3Cl)n[nH]c12 (stereo not drawn)

>  <pIC50>
5.30 to 6.70

$$$$
>  <compound>
N#Cc1ccc2c(-c3nc(N[C@H]4CCCNC4)ncc3SC(F)F)c[nH]c2c1

>  <pIC50>
5.30 to 6.70

$$$$
>  <compound>
CC(C)C1CCC(Nc2nccc(-c3c[nH]c4ccccc34)n2)CN1 (stereo not drawn)

>  <pIC50>
5.30 to 6.70

$$$$
>  <compound>
CC1(C)CCNC[C@H]1Nc1ncc(C(F)(F)F)c(-c2c[nH]c3ccccc23)n1

>  <pIC50>
≤ 5.30

$$$$
>  <compound>
Fc1cccc(-c2ccc3c(-c4nc(NC5CCCNC5)ncc4C(F)(F)F)c[nH]c3c2)c1 (stereo not drawn)

>  <pIC50>
≤ 5.30

$$$$

stdin: Name the recorded pIC50 of the compound listed here: Clc1cnc(N[C@H]2CN3CCC2CC3)nc1-c1c[nH]c2ccccc12
stdout: ≤ 5.30

stdin: Name the recorded pIC50 of the compound listed here: Cn1cc(-c2cccc3c(-c4nc(NC5CCCNC5)ncc4C(F)(F)F)c[nH]c23)cn1 (stereo not drawn)
stdout: 5.30 to 6.70

stdin: Name the recorded pIC50 of the compound listed here: CC(C)c1cnc(N[C@H]2CCCNC2)nc1-c1n[nH]c2nc(C#N)ccc12
stdout: ≤ 5.30

stdin: Name the recorded pIC50 of the compound listed here: FC(F)(F)c1cnc(NC2CCCNC2)nc1-c1c[nH]c2cc(-c3ccc4[nH]cnc4c3)ccc12 (stereo not drawn)
stdout: 5.30 to 6.70

stdin: Name the recorded pIC50 of the compound listed here: FC(F)(F)c1cnc(NC2CNCC(c3nnc4ccccn34)C2)nc1-c1c[nH]c2ccccc12 (stereo not drawn) [Compound 267]
stdout: 5.30 to 6.70

stdin: Name the recorded pIC50 of the compound listed here: OCc1ncccc1-c1ccc2c(-c3nc(NC4CCCNC4)ncc3C(F)(F)F)c[nH]c2c1 (stereo not drawn)
stdout: 5.30 to 6.70

stdin: Name the recorded pIC50 of the compound listed here: FC(F)(F)c1cc2[nH]cc(-c3ccc4c(-c5nc(N[C@H]6CCCNC6)ncc5C(F)(F)F)c[nH]c4c3)c2cn1
stdout: 5.30 to 6.70

---

Entries annotated with measured IC50
# system_name: CDK2/Cyclin E1 complex (Homo sapiens, UniProt P24941)
# experiment_summary: CDK2 kinase inhibition assay (Caliper/LabChip EZ Reader)
# condition_details: CDK2/Cyclin E1 0.5 nM, ATP 2 mM, 35 min at 27° C.

Guide cases for IC50, answers given:
>  <molecule>
CC1CCNCC1Nc1ncc(C(F)(F)F)c(-c2c[nH]c3ccccc23)n1 (stereo not shown) [Compound 285]

>  <IC50>
≥ 5 µM

$$$$
>  <molecule>
Cc1[nH]ncc1-c1cccc2c(-c3nc(N[C@@H]4CCCNC4)ncc3C(F)(F)F)c[nH]c12

>  <IC50>
0.2 to 5 µM

$$$$
>  <molecule>
N#Cc1ccc2c(-c3nc(NC4CCCNC4)ncc3OC(F)F)c[nH]c2c1 (stereo not shown)

>  <IC50>
≥ 5 µM

$$$$

stdin: Name the recorded IC50 of the molecule listed here: CC1(C)CNC[C@@H](Nc2ncc(C(F)(F)F)c(-c3c[nH]c4ccccc34)n2)C1
stdout: 0.2 to 5 µM

---

# system_name: CDK7/Cyclin H/MAT1 complex (Homo sapiens, UniProt P50613)
# experiment_summary: CDK7 kinase inhibition assay (Caliper/LabChip EZ Reader)
# condition_details: CDK7/Cyclin H/MAT1 6 nM, ATP 2 mM, 35 min at 27° C.
measured_quantity: IC50

>  <compound>
NS(=O)(=O)c1cccc(-c2ccc3c(-c4nc(NC5CCCNC5)ncc4C(F)(F)F)c[nH]c3c2)c1 (stereo not shown)

>  <system_name>
CDK7/Cyclin H/MAT1 complex (Homo sapiens, UniProt P50613)

>  <IC50>
20 to 200 nM

$$$$

stdin: Name the recorded IC50 of the compound listed here: CC(C)N1CCCC(Nc2ncc(Cl)c(-c3c[nH]c4ccccc34)n2)C1 (stereo not shown)
stdout: 20 to 200 nM

stdin: Name the recorded IC50 of the compound listed here: Clc1cnc(NC2CCCNC2)nc1-c1cn(-c2ccccc2)c2ccccc12 (stereo not shown)
stdout: 200 to 5000 nM

FYI, the data here is from patent US20230000870A1.
